Test: soluble on expression in E. coli; label from the status in PepcDB or PDB records
readout-kind: soluble on expression in E. coli

INSERT INTO measurements (residue_codes, test_result) VALUES
  ('MASYRVAALYRFTRFEDPAAIQGPLAALCCSLGVKGTLLLAREGINGTIAGEDAAIEAVLAHIRALPGCADLTPKTAWAERMPFYRMKVRLKKEIVTLGEPDLDPTDAGTYVEPADWNALISDPDVLVIDTRNAYEVAVGRFEGAIDPQTASFADFPAWFRDWRKSVEAQRGPEAPLKVAMYCTGGIRCEKSTAFLKAEGVEQVFHLKGGVLDYLEQIPQPESLWRGECFVFDERVSVGHGLVKGDHVLCRGCRMPVSPQDQASPLYVEGVACPACHDQRNEEQKARAAERHRQVLHCEALGVDHVGATLPTKIDLEHHHHHH', 'not soluble'),
  ('AIIVKKTTEIEQTHKDYDPYQILGLDQGADEKAIKKAWRDMSKIHHPDRGGDAQFFDKIAKAHQALTDKEARENWEKYGNPDGPTATTFGIALPKWLVSKEYGL', 'not soluble'),
  ('MTASERVVVKELSSSLLDMKFMLKKKKQIETKAAKKKEAKLDQLITEKEAEATCSTEILKSSEPKLEICYDYAKLENLKFGRLSFGGFNKEVELLMEYYEKLQNGMLSDSDDDGMDVDDEEMAKSLGGQKLAALDKKSQSKRERRQQNERNEETTGGRRFNIKDIRKRFAADDVADAPERKFMKPAEDC', 'not soluble');

###

Assay: soluble on expression in E. coli; label from the status in PepcDB or PDB records
readout-kind: soluble on expression in E. coli

Please review the following examples before continuing.
INSERT INTO assay_data (residue_codes, test_result) VALUES
  ('MGSDKIHHHHHHMAYRNGTYVAFHANGTNRPGGNSDIDYYNLLKAWVGKDDDHFTMNNSHDKASAVRDSSKKETLRASLLERLRNSKNMVLIIGDTTLLDDDWVPFEISSAVDTYEIPIIAVYTQYSTPIRNPAALRSRWPDALATRIDSQKAKVIHIPFKKAALNDAISQFSHNNMPKGPLSFYSDEAYESFGIDG', 'not soluble'),
  ('MDMYSMKISEGVERIDGVTANSYLLTLDGKNILIDTGTAGGGKKIIDYFNKNGTKPDYVIVTHHHADHVGGLKEISERFNPEIYVPDLEMKIIRGEEDPPKPRSFFGRMITGMLKFEPVKDVKPVSKASIPGIEEMATPGHTIGSTSYIVEDLHILFSGDAAVESGGELKINKSFSYEINSAERSLEIIKGMKGYLVLPGHGDKVQLLEHHHHHH', 'soluble'),
  ('MGSDKIHHHHHHMFLKNAWYVAAWDHEVRTDLQQIMVLGEKICMFRTQSGDLVALEDACPHRKLPLSKGRIKGDTVECGYHGLTFNCAGTCVWAPGASGIPSNARVHAYPLAEKYGLIWIWMGNPALADPSDIFEIENYGNPDWGINRGAAMELDCNYLLMCDNLLDPTHVAWVHQSSFAAEATKDTPLHVTKTDTGIIVHRWMMDHDPAPFYKKVVEFDGNCDRLQHYEVRYPSHALVRAVFTPAGTGGPDGPLHANTFIMDSYNFMTPVSEGKTRYYWFQLRNIRPDDEALSQMMSDDVHHAFEEDRAVLNEVQIGMSSKTSPHIDLPIDGGQLRFRRQLQAMINEEAQVDAQMAE', 'not soluble'),
  ('ALIIVSGSEGRIEKAQNIAQLLSSRGYICLAIAYFGLEGLPKHLKRIPLECLVEAKSYLRQYPQVDSERIGIYGRSKGAELVLAEESIFNDVQCLVLNSPSDVVDEGIIGKWNSHTSSWTHLQKELPYQKFRFRDYLFSKLFRKDFPKDCSARIDIGQMHSPILLLESTVDEIWDASSAIDDIVSHYKGHYITFKKYHETGHMLTVAYQPNHRYRKDWHLLMKESEDSWLATIHFFDRHLK', 'not soluble'),
  ('MSISISYSTTYSGWTVADYLADWSAYFGDVNHRPGQVVDGSNTGGFNPGPFDGSQYALKSTASDAAFIAGGDLHYTLFSNPSHTLWGKLDSIALGDTLTGGASSGGYALDSQEVSFSNLGLDSPIAQGRDGTVHKVVYGLMSGDSSALQGQIDALLKAVDPSLSINSTFDQLAAAGVAHATPAA', 'soluble');

// lookup soluble on expression in E. coli for MAHHHHHHMAPMSSSGIRGLSLRSVRETVHCATTQTTSAPPPPANCQQHQLLNTTEDKCNAIFAEVELLSKWLQHAVESRAHVEREAYALLQQADVKIQHLEDTVRQKEMELLYMRGAMESLRTRVEFYECRERRIEGDDDDANFPLRREADFKGAAVRKVVIMGENNTNDSYCSNRMGRGNGVMSPADFTVDSTEQLNAGKCVDLGTTATTCNSNGVDNASVSSPAETGVGGRSRVGHSALSWVRYLLERCVSNSGKDGASEGAASMKKKGEGNDQLADALTMLTTLQCQYADPNGDLVMMNSLCTKFSNSIVAVAEELNTALQIPLKRASNTTDSLQISQAAKVVEHPESAAEALPSSNQEPIMQCRKSVVEENLQLLQSLMAVESSSREAWSTLQKY
not soluble

Using the record for MRNPIMVTTEVAGEPPGQGRKWAAHGTMAAPRVHTDYHPGGGSACSSVKVRSHVGHTGVFFFVDQDPLAVSLTSQSLIPPLIKPGLLKAWGFLLLCAQPSANGHSLCCLLYTDLVSSHELSPFRALCLGPSDAPSACASCNCLASTYYLLEHHHHHH , report its soluble on expression in E. coli.
not soluble

Return reported soluble on expression in E. coli; argument: MKRMLASLLGTAIALGSGLALAAEADLQALEQAARKEGQVNSVGMPDSWANWKDTWKDLESKYGLKHMDTDMSSAQELAKFKAEKDNASADIGDVGAAFGPIAVQQGVSQPYKPSTWEQIPAWAKDQDGHWALAYTGTIAFIVNKQLVKDVPHSWADLLQGKYKVTIGDVSAAAQAVNGVLAAAIANGGDEKNIKPGLEFFGKIAKQGRLSLTNPVIATLEKGEVEVGIVWDFNGLSYRQQIDPERFEVLIPSDGSVISGYTTIINKYAKHPNAAKLAREYIFSDAGQINLAKGNARPIRAESLTLPDDVKAQLLPNEQYAKAQPIKDAKAWEETSKRLPRQWQEAVIINMQ
not soluble

Item MQNNNEFKIGNRSVGYNHEPLIICEIGINHEGSLKTAFEMVDAAYNAGAEVVKHQTHIVEDEMSDEAKQVIPGNADVSIYEIMERCALNEEDEIKLKEYVESKGMIFISTLFSRAAALRLQRMDIPAYKIGSGECNNYPLIKLVASFGKPIILSTGMNSIESIKKSVEIIREAGVPYALLHCTNIYPTPYEDVRLGGMNDLSEAFPDAIIGLSDHTLDNYACLGAVALGGSILERHFTDRMDRPGPDIVCSMNPDTFKELKQGAHALKLARGGKKDTIIAGEKPTKDFAFASVVADKDIKKGELLSGDNLWVKRPGNGDFSVNEYETLFGKVAACNIRKGAQIKKTDIE has what recorded soluble on expression in E. coli?
soluble

Form field: reported soluble on expression in E. coli of MGSSHHHHHHSSGRENLYFQGHMASQLTDAFARKFYYLRLSITDVCNFRCTYCLPDGYKPSGVTNKGFLTVDEIRRVTRAFARLGTEKVRLTGGEPSLRRDFTDIIAAVRENDAIRQIAVTTNGYRLERDVASWRDAGLTGINVSVDSLDARQFHAITGQDKFNQVMAGIDAAFEAGFEKVKVNTVLMRDVNHHQLDTFLNWIQHRPIQLRFIELMETGEGSELFRKHHISGQVLRDELLRRGWIHQLRQRSDGPAQVFCHPDYAGEIGLIMPYEKDFCATCNRLRVSSIGKLHLCLFGEGGVNLRDLLEDDTQQQALEARISAALREKKQTHFLHQNNTGITQNLSYIGG
soluble

soluble on expression in E. coli lookup needed for MGSDKIHHHHHHAQNQDCAFFFPNQEGEQITRNCYTADGKLTNILVYRVDQAYEYPSGMEVVANYTFADAAGKTLNSGQMVARCSDGNFSMSMGDVATFPTALNMMNADVYMMGDLMNYPDAFSNPMNPGDDDEFDDGTLRLYQKGNKNNRAEISVFDREFVTTETVNTPAGAFYCTKVKYEMNIWTPKETIKGYGYEWYAPNIGIVRSEQYNNKKELQSYSVLERIKK , thanks.
not soluble
